- EXPERIMENT: Half life in rat plasma at 1 mg/kg, iv and 5 mg/kg, po
- Format: ADME, organism-based

| SMILES_STRING | UNIT_LABEL | half-life |
| --- | --- | --- |
| O=C(/C=C/c1ccccc1Cl)N1CCN(Cc2ccc(F)cc2)CC1 | h | 2.17 |
| N#Cc1ccccc1/C=C/C=C/C(=O)N1CCN(c2ccccn2)CC1 | h | 2.78 |

====

- Test system: CHO
- EXPERIMENT: Inhibition of SFLLR-NH2-induced calcium release in CHO cells treated prior to SFLLR-NH2 challenge […] by FLIPR assay
- Type: functional, cell-based
- TEST_CONDITIONS: Cricetulus griseus, read-out: pA2 (converted)

| SMILES_STRING | Kb |
| --- | --- |
| O=C(/C=C/C=C/c1ccccc1[N+](=O)[O-])N1CCN(C2CCCC2)CC1 | 69.2 nM |
| O=C(/C=C/c1ccccc1[N+](=O)[O-])N1CCN(CC2CCCCC2)CC1 | 490 nM |
| O=C(/C=C/c1c(F)cccc1F)N1CCN(C(=O)C2CCCCCC2)CC1 | 214 nM |
| CCOc1cc2c(cc1C(=O)NC)C(=N)N(CC(=O)c1cc(C(C)(C)C)c(O)c(C(C)(C)C)c1)C2 | 141 nM |
| N#Cc1ccccc1/C=C/C(=O)N1CCN(C(=O)C2CCCCCC2)CC1 | 87.1 nM |
| O=C(/C=C/C=C/c1ccccc1[N+](=O)[O-])N1CCN(c2ccccc2)CC1 | 58.9 nM |
| O=C(/C=C/c1ccccc1Cl)N1CCN(Cc2ccc(F)cc2)CC1 | 214 nM |
| N#Cc1ccccc1/C=C/C=C/C(=O)N1CCN(c2ccccn2)CC1 | 324 nM |

====

Measured Activity by item
- System: Rattus norvegicus
- EXPERIMENT: Increase in occlusion time of arteriovenous shunt in Crl: OFA Sprague-Dawley rat at 1.25 mg/kg, iv
- Type: functional

| SMILES_STRING | UNIT_LABEL | Activity |
| --- | --- | --- |
| N#Cc1ccccc1/C=C/C(=O)N1CCN(C(=O)C2CCCCCC2)CC1 | % | 19 |
| O=C(/C=C/c1ccccc1[N+](=O)[O-])N1CCN(CC2CCCCC2)CC1 | % | 29 |
| N#Cc1ccccc1/C=C/C=C/C(=O)N1CCN(c2ccccn2)CC1 | % | 58 |
| CCOc1cc2c(cc1C(=O)NC)C(=N)N(CC(=O)c1cc(C(C)(C)C)c(O)c(C(C)(C)C)c1)C2 | % | 27 |
| O=C(/C=C/c1ccccc1Cl)N1CCN(Cc2ccc(F)cc2)CC1 | % | 28 |

====

- EXPERIMENT: Solubility in water
- Format: physicochemical
READOUT_KIND: solubility (µg/mL)

| SMILES_STRING | READOUT_KIND | UNIT_LABEL | VALUE_OBSERVED |
| --- | --- | --- | --- |
| N#Cc1ccccc1/C=C/C=C/C(=O)N1CCN(c2ccccn2)CC1 | solubility | µg/mL | 2500 |
| O=C(/C=C/c1ccccc1Cl)N1CCN(Cc2ccc(F)cc2)CC1 | solubility | µg/mL | 1700 |

====

Measured bioavailability by item
- EXPERIMENT: Oral bioavailability in rat
- Format: ADME, organism-based
- TEST_CONDITIONS: in vivo

| SMILES_STRING | bioavailability / % |
| --- | --- |
| N#Cc1ccccc1/C=C/C=C/C(=O)N1CCN(c2ccccn2)CC1 | 42 |
| O=C(/C=C/c1ccccc1Cl)N1CCN(Cc2ccc(F)cc2)CC1 | 43 |

====

- Tested on: Rattus norvegicus
- EXPERIMENT: Increase in occlusion time of arteriovenous shunt in Crl: OFA Sprague-Dawley rat at 1.25 mg/kg, iv
- Assay type: functional
Measured Activity by item

| SMILES_STRING | Activity [%] |
| --- | --- |
| O=C(/C=C/C=C/c1ccccc1[N+](=O)[O-])N1CCN(C2CCCC2)CC1 | 44 |
| O=C(/C=C/c1c(F)cccc1F)N1CCN(C(=O)C2CCCCCC2)CC1 | 14 |
| O=C(/C=C/C=C/c1ccccc1[N+](=O)[O-])N1CCN(c2ccccc2)CC1 | 3 |
